target: T1, human MSLN-R2-his protein (human, UniProt Q13421 391-486); test: ELISA, coated antigen; no antibody (blank, column 'none')
T1 construct: also called human MSLN-R2 protein; hMSLN-R2-his; not shown: His tag
T1 sequence (Q13421 other isoform, or with tags, fused parts or gaps): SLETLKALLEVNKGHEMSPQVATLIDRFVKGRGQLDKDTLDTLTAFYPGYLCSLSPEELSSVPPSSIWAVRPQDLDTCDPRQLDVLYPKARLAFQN
MEASURED_PARAMETER: OD450 (OD450)
# number only, unit OD450 dropped from output

[[record]]
binder = "Tab106 (YP218, hIgG1) (antibody, V domains shown, Control antibody: YP218 VH and VL recombined into human IgG1 CH and CL expression vectors; also called YP218 human IgG1 antibody) VH: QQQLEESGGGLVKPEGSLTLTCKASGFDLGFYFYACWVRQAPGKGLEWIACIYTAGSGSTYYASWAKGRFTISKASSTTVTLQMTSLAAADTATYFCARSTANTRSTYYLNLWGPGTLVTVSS VL: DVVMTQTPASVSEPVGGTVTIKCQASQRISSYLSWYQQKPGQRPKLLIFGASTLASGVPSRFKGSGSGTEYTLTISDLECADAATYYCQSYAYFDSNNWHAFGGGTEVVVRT"
value_observed = 0.07

[[record]]
binder = "S009-F5-9.16 (antibody, human IgG1, kappa, V domains shown, Human-murine chimeric antibody, human IgG1/kappa constant regions) VH: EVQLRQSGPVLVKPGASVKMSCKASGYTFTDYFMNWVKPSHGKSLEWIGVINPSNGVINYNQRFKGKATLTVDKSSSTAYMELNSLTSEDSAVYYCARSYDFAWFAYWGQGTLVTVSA VL: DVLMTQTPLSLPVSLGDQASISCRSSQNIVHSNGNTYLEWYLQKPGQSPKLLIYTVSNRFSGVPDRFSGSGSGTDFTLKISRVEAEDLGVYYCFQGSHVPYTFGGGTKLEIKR"
value_observed = 0.05

[[record]]
binder = "S009-F4-127.10 (antibody, human IgG1, kappa, V domains shown, Human-murine chimeric antibody, human IgG1/kappa constant regions) VH: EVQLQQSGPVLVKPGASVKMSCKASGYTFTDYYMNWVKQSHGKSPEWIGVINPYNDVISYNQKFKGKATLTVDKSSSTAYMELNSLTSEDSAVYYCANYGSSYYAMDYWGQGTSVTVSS VL: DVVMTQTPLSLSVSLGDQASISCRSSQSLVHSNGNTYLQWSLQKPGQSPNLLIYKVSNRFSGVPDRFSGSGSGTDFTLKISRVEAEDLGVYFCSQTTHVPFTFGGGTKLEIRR"
value_observed = 0.06


// S009-F6-76.1 (antibody, human IgG1, kappa, V domains shown, Human-murine chimeric antibody, human IgG1/kappa constant regions) VH: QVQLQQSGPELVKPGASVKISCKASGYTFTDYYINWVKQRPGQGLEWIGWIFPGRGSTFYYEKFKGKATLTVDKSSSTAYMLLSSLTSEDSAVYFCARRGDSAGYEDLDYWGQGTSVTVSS VL: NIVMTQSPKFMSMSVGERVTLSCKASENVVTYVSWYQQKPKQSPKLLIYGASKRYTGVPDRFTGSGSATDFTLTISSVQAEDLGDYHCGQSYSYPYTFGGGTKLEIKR : OD450 value = 0.05
